Give inhibition at 1 µM for every item shown.
molecular target: human PDE4B1 (Homo sapiens, UniProt Q07343); construct: host or cells: Sf9 cells; test: cAMP HTRF assay to determine the activity of hPDE4B1; type: biochemical; details: inhibition of PDE4B at a test concentration of 1 μM
Sequence (Q07343 whole entry): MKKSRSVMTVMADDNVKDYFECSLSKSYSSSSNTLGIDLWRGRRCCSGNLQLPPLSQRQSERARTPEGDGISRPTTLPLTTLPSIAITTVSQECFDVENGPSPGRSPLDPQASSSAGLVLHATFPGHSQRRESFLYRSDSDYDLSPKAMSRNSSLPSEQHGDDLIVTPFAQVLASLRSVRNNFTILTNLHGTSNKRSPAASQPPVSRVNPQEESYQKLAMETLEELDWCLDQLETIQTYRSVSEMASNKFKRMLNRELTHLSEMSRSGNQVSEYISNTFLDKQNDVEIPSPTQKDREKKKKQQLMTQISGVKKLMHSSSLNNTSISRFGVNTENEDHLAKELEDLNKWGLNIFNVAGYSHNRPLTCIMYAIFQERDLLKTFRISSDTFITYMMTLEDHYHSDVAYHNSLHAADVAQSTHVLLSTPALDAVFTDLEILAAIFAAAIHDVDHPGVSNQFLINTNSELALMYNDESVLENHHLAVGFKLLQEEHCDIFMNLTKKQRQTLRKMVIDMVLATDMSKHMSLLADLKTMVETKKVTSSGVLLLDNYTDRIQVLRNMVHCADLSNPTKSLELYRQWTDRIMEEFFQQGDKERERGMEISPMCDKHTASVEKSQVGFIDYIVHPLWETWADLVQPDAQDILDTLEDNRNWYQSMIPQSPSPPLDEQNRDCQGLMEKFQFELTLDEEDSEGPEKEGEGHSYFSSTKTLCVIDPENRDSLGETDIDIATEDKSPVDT
Numbers only, in %.

In [3]: df
Out[3]:
                                   molecule                              assay_system  measured_result
0  O=C(c1ccc2c(CO)cn(-c3ncc(-c4ccccc4F)cn3)c2c1)N1CCOCC1  human PDE4B1 (Homo sapiens, UniProt Q07343)               79

Please state inhibition at 1 µM for every molecule in the list that follows.
1. C[S+]([O-])c1cn(-c2ncc(-c3ccc(O)cc3)cn2)c2cc(C(=O)N3CCOCC3)ccc12 (stereo not drawn)
2. C[S+]([O-])c1cn(-c2ncc(-c3ccccc3)cn2)c2cc(C(=O)N3CCNCC3)ccc12 (stereo not drawn)
3. CS(=O)(=O)c1cn(-c2ncc(-c3ccccc3Cl)cn2)c2cc(C(=O)N3CCOCC3)ccc12
4. C[S+]([O-])c1cn(-c2ncc(-c3ccccc3F)cn2)c2cc(C(=O)N3CC[C@@H](O)C3)ccc12 (stereo partly drawn)

[99, 33, 78, 97]

Each molecule below has a reported value. Please supply its inhibition at 1 µM.
1. C[S+]([O-])c1cn(-c2ncc(-c3ccccc3)cn2)c2cc(C(=O)N3C[C@H]4C[C@@H]3CO4)ccc12 (stereo partly drawn)
2. COc1ccc(F)c(-c2cnc(-n3cc(S(C)(=O)=O)c4ccc(C(=O)N5CCNC(=O)C5)cc43)nc2)c1
3. C[S+]([O-])c1cn(-c2ncc(-c3ccccc3F)cn2)c2cc(C(=O)N3CCC(O)CC3)ccc12 (stereo not drawn)

1: 91; 2: 90; 3: 78

###

For each of the compounds below, state its melting point.

The cases that follow already have their melting point on record.
>>> print(df.to_string())
                                   compound  measured_quantity  measured_result
0  C[S+]([O-])c1cn(-c2ncc(-c3nccs3)cn2)c2cc(C(=O)N3CCOCC3)ccc12 (stereo not shown)      melting point    235 to 237 °C
1  CC(C)(O)c1cn(-c2ncc(-c3ccccc3F)cn2)c2cc(C(=O)N3CCOCC3)ccc12      melting point    116 to 119 °C
2  CC[S+]([O-])c1cn(-c2ncc(-c3ccccc3F)cn2)c2cc(C(=O)N3CCOCC3)ccc12 (stereo not shown)      melting point    122 to 126 °C

Provide each entry's melting point from the list below.
1. Cc1cnc(-c2cnc(-n3cc([S+](C)[O-])c4ccc(C(=O)N5CCOCC5)cc43)nc2)s1 (stereo not shown)
2. C[S+]([O-])c1cn(-c2ncc(-c3cc(O)ccn3)cn2)c2cc(C(=O)N3CCOCC3)ccc12 (stereo not shown)
3. C[S+]([O-])c1cn(-c2ncc(-c3ccc(C(=O)O)cc3)cn2)c2cc(C(=O)N3CCOCC3)ccc12 (stereo not shown)
4. C[S+]([O-])c1cn(-c2ncc(-c3cc(N)ccc3F)cn2)c2cc(C(=O)N3CCOCC3)ccc12 (stereo not shown)

1. 257 to 260 °C
2. 272 to 276 °C
3. 219 to 223 °C
4. 188 to 192 °C
